Measured on: UniProtKB P06493
Sequence (P06493 whole entry): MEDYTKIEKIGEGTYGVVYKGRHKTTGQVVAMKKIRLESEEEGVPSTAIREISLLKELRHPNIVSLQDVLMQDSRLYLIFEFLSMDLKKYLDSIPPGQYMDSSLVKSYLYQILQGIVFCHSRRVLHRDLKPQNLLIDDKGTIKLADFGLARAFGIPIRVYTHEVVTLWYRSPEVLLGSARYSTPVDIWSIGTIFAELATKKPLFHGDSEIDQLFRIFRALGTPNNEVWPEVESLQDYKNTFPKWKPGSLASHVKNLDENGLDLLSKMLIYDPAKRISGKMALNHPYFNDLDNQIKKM
pKd: −log10 of the molar value.
Documented pKd across a set of molecules

Example results:
- NC(=O)c1c(F)cccc1Nc1nc(Nc2ccc(S(=O)(=O)NCCOCCOCCOCCOCCOCCOC/C=C/C(=O)N3CCC[C@@H](n4nc(-c5ccc(Oc6ccccc6)cc5)c5c(N)ncnc54)C3)cc2)ncc1Br: 6.30 to 7.30
- CCc1cnn2c(NCc3ccc(OCCOCCOCCOCCOCCOCCOCCOCCOCCOC/C=C/C(=O)N4CCC[C@@H](n5nc(-c6ccc(Oc7ccccc7)cc6)c6c(N)ncnc65)C4)nc3)cc(N3CCCC[C@H]3CCO)nc12: < 5.60

Let's switch to this molecule now.
Specify pKd for CN(C/C=C/C(=O)N1CCC[C@@H](n2nc(-c3ccc(Oc4ccccc4)cc3)c3c(N)ncnc32)C1)CCCN1CCN(CCCNS(=O)(=O)c2ccc(Nc3ncc(Br)c(Nc4cccc(F)c4C(N)=O)n3)cc2)CC1 and stop.
> 7.30
